Study System: Recombinant human H-PGDS (Homo sapiens, UniProt O60760)
Sequence (O60760 whole entry): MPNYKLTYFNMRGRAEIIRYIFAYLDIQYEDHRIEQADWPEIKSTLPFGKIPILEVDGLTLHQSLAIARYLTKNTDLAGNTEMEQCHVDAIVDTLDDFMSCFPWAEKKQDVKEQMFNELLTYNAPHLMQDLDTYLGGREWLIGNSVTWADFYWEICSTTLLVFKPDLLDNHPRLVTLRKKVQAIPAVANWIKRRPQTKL
Experimental Details: H-PGDS inhibitory activity (prostaglandin D2 production from prostaglandin H2, measured by LC-MS/MS)
Experimental Parameters: recombinant human H-PGDS 1.0 nM expressed in E. coli; prostaglandin H2 25 μM; preincubated 15 minutes on ice, reacted on ice for 1 minute; concentration that inhibits prostaglandin D2 production by 50%
pIC50: −log10 of the molar value.
# pIC50 values compiled below
Measured Quantity: pIC50

>>> df
                                    compound  measured_quantity  endpoint_result
 0  Cc1cc2occc2c(-c2ccc(C(=O)N[C@H]3CC[C@H](OCC(C)(C)O)CC3)cc2)n1 [Example 342]              pIC50             8.52
 1  O=C(NC1CCN(c2ncccn2)CC1)c1ccc(-c2nccc3[nH]ccc23)cc1 [Example 336]              pIC50             9.03
 2  O=C(N[C@@H]1CCN(c2ncccn2)C1)c1ccc(-c2nccc3occc23)cc1 [Example 192]              pIC50             8.11
 3  CC(C)n1nnnc1N1CCC(NC(=O)c2ccc(-c3nccc4occc34)cc2)CC1 [Example 242]              pIC50             8.70
 4  O=C(N[C@H]1CC[C@H](O)CC1)c1ccc(-c2nccc3sccc23)cc1 [Example 341]              pIC50             8.62
 5  Cc1coc2ccnc(-c3ccc(C(=O)N[C@H]4CC[C@H](C(C)(C)O)CC4)cc3)c12 [Example 130]              pIC50             8.17
 6  CCc1cc2occc2c(-c2ccc(C(=O)N[C@H]3CC[C@H](C(C)(C)O)CC3)cc2)n1 [Example 314]              pIC50             7.15
 7  O=C(N[C@H]1CCN(c2ccnc(F)c2)C1)c1ccc(-c2nccc3occc23)cc1 [Example 196]              pIC50             8.82
 8  COc1ccnc(N2CCC(NC(=O)c3ccc(-c4nccc5occc45)cc3)CC2)n1 [Example 162]              pIC50             8.72
 9  O=C(NC1CCN(c2nccc(CO)n2)CC1)c1ccc(-c2nccc3occc23)cc1 [Example 187]              pIC50             9.10
10  O=C(N[C@H]1CC[C@@](O)(C(F)(F)F)CC1)c1ccc(-c2nccc3occc23)cc1 [Example 264]              pIC50             8.46
11  O=C(NC1CCN(c2nncs2)CC1)c1ccc(-c2nccc3occc23)cc1 [Example 237]              pIC50             8.92
12  O=C(NCC1CCCO1)c1ccc(-c2nccc3[nH]ccc23)cc1 (stereo not drawn) [Example 20]              pIC50             9.08
13  C=Cc1cc2occc2c(-c2ccc(C(=O)N[C@H]3CC[C@H](C(C)(C)O)CC3)cc2)n1 [Example 313]              pIC50             6.77
14  O=C(NC1CCN(c2ncccc2F)CC1)c1ccc(-c2nccc3occc23)cc1 [Example 144]              pIC50             8.82
15  O=C(Nc1cc(-c2ccccc2)[nH]n1)c1ccc(-c2nccc3occc23)cc1 [Example 100]              pIC50             7.72
16  CCO[C@H]1CC[C@H](NC(=O)c2ccc(-c3nccc4occc34)cc2)CC1 [Example 287]              pIC50             9.06
17  [2H]C([2H])([2H])O[C@H]1CC[C@H](NC(=O)c2ccc(-c3nccc4occc34)cc2)CC1 [Example 286]              pIC50             9.00
18  O=C(Nc1ccncc1)c1ccc(-c2nccc3occc23)cc1 [Example 108]              pIC50             8.30
19  O=C(NC12CC(O)(C1)C2)c1ccc(-c2nccc3occc23)cc1 [Example 278]              pIC50             8.48
20  CC(=O)N(C(C)=O)c1cnc(N2CCC(NC(=O)c3ccc(-c4nccc5occc45)cc3)CC2)nc1 [Example 188]              pIC50             8.37
21  CC(C)(O)[C@H]1CC[C@H](NC(=O)c2ccc(-c3ncc(F)c4occc34)cc2)CC1 [Example 136]              pIC50             8.05
22  COCCNC(=O)c1ccc(-c2nccc3occc23)cc1 [Example 78]              pIC50             7.30
23  CC(C)(O)CO[C@H]1CC[C@H](NC(=O)c2ccc(-c3nccc4occc34)c(F)c2)CC1 [Example 329]              pIC50             8.70
24  O=C(NCCCO)c1ccc(-c2nccc3[nH]ccc23)cc1 [Example 30]              pIC50             9.19
25  O=C(NC1CCNCC1)c1ccc(-c2nccc3occc23)cc1 [Example 142]              pIC50             8.47
26  NS(=O)(=O)c1cnc(N2CCC(NC(=O)c3ccc(-c4nccc5occc45)cc3)CC2)nc1 [Example 177]              pIC50             8.92
27  CC(O)CNC(=O)c1ccc(-c2nccc3[nH]ccc23)cc1 (stereo not drawn) [Example 31]              pIC50             8.82
28  COCCN[C@H]1CC[C@H](NC(=O)c2ccc(-c3nccc4occc34)cc2)CC1 [Example 301]              pIC50             7.96
29  O=C(NCc1ccccn1)c1ccc(-c2nccc3[nH]ccc23)cc1 [Example 9]              pIC50             8.82

* * *

Study System: Recombinant human H-PGDS (Homo sapiens, UniProt O60760)
Experimental Details: H-PGDS inhibitory activity (prostaglandin D2 production from prostaglandin H2, measured by LC-MS/MS)
Experimental Parameters: recombinant human H-PGDS 1.0 nM expressed in E. coli; prostaglandin H2 25 μM; preincubated 15 minutes on ice, reacted on ice for 1 minute; concentration that inhibits prostaglandin D2 production by 50%
pIC50: −log10 of the molar value.
# pIC50 values compiled below
Measured Quantity: pIC50

>>> print(df.to_string())
                                   molecule  endpoint_result
0  CC(C)(O)[C@H]1CC[C@H](NC(=O)c2ccc(-c3nccc4[nH]ccc34)cc2)CC1 [Example 2]             9.12
1  COc1ccc(CN2CCC(NC(=O)c3ccc(-c4nccc5occc45)cc3)CC2)cc1Cl [Example 244]             8.40
2  O=C(NC12CCC(O)(CC1)CC2)c1ccc(-c2nccc3occc23)cc1 [Example 260]             8.72
3  O=C(Nc1cc(C2CC2)[nH]n1)c1ccc(-c2nccc3occc23)cc1 [Example 104]             8.10
4  Cn1nnnc1N1CCC(NC(=O)c2ccc(-c3nccc4occc34)c(F)c2)CC1 [Example 323]             8.96
5  Cc1nnnn1[C@H]1CC[C@H](NC(=O)c2ccc(-c3nccc4occc34)cc2)CC1 [Example 297]             8.72
6  O=C(NC1CCN(c2nnnn2C2CC2)CC1)c1ccc(-c2nccc3occc23)cc1 [Example 243]             8.70
7  O=C(NCc1cc[nH]n1)c1ccc(-c2nccc3[nH]ccc23)cc1 [Example 54]             8.92
8  CCC(O)CNC(=O)c1ccc(-c2nccc3[nH]ccc23)cc1 (stereo not drawn) [Example 33]             8.96

* * *

Study System: Recombinant human H-PGDS (Homo sapiens, UniProt O60760)
Experimental Details: H-PGDS inhibitory activity (prostaglandin D2 production from prostaglandin H2, measured by LC-MS/MS)
Experimental Parameters: recombinant human H-PGDS 1.0 nM expressed in E. coli; prostaglandin H2 25 μM; preincubated 15 minutes on ice, reacted on ice for 1 minute; concentration that inhibits prostaglandin D2 production by 50%
# IC50 values compiled below
Measured Quantity: IC50 (nM)

In [3]: df
Out[3]:
                                    compound                              study_system  endpoint_result
 0  O=C(N[C@H]1CC[C@H](C2(O)CC2)CC1)c1ccc(-c2nccc3occc23)c(F)c1  Recombinant human H-PGDS (Homo sapiens, UniProt O60760)              1.1
 1  COCCn1nc(C)c(CNC(=O)c2ccc(-c3nccc4[nH]ccc34)cc2)c1C  Recombinant human H-PGDS (Homo sapiens, UniProt O60760)             0.91
 2  CC(C)(O)[C@]1(O)CC[C@@H](NC(=O)c2ccc(-c3nccc4occc34)cc2)CC1  Recombinant human H-PGDS (Homo sapiens, UniProt O60760)               27
 3  O=C(N[C@H]1CC[C@H](CO)CC1)c1ccc(-c2nccc3[nH]ccc23)cc1  Recombinant human H-PGDS (Homo sapiens, UniProt O60760)             0.63
 4  O=C(NCc1ccccc1)c1ccc(-c2nccc3[nH]ccc23)cc1  Recombinant human H-PGDS (Homo sapiens, UniProt O60760)                1
 5  O=C(Nc1cccc(F)c1)c1ccc(-c2nccc3occc23)cc1  Recombinant human H-PGDS (Homo sapiens, UniProt O60760)              3.4
 6  C=Cc1cnc(-c2ccc(C(=O)N[C@H]3CC[C@H](C(C)(C)O)CC3)cc2)c2ccoc12  Recombinant human H-PGDS (Homo sapiens, UniProt O60760)               12
 7  CC[C@]1(O)CC[C@@H](NC(=O)c2ccc(-c3nccc4occc34)cc2)CC1  Recombinant human H-PGDS (Homo sapiens, UniProt O60760)              1.3
 8  O=C(N[C@H]1CC[C@H](NC2COC2)CC1)c1ccc(-c2nccc3occc23)cc1  Recombinant human H-PGDS (Homo sapiens, UniProt O60760)              2.1
 9   O=C(Nc1ccccc1F)c1ccc(-c2nccc3occc23)cc1  Recombinant human H-PGDS (Homo sapiens, UniProt O60760)              5.7
10  CC(O)[C@@H]1CC[C@@H](NC(=O)c2ccc(-c3nccc4occc34)cc2)CO1 (stereo partly drawn)  Recombinant human H-PGDS (Homo sapiens, UniProt O60760)              3.8
11  O=C(NCc1ccc(Cl)cc1)c1ccc(-c2nccc3[nH]ccc23)cc1  Recombinant human H-PGDS (Homo sapiens, UniProt O60760)             0.64
